I'd be grateful if you could share measured EC50 for these entries.
# Study System: Pyroglutamylated RF-amide peptide receptor (Homo sapiens)
# Assay Text: Agonist activity at human QRFPR expressed in CHO cells co-expressing Galpha16 assessed as increase Ca2+ mobilization after 3 mins by Fluo-4 AM-based scanning fluorometery
Starred links: 1 amine or outer side, 2 acyl side, 3 side chain; linkers in the order of their positions; H or OH if unused. Non-standard residues stand in square brackets, D forms with d. Residues, ends and D or L forms follow the SMILES beside them. X11 = CC(C)CNC(=N)NCCCC[C@H](N[*:1])C(=O)[*:2]; X3 = CN(C)C(=N)NCCCC[C@H](N[*:1])C(=O)[*:2]; X5 = CCN(CC)C(=N)NCC[C@H](N[*:1])C(=O)[*:2]; X6 = N=C(NCCC[C@H](N[*:1])C(=O)[*:2])N1CCC1; X22 = CCCNC(=N)NCC[C@H](N[*:1])C(=O)[*:2]

CCN(CC)C(=N)NCC[C@H](NC(=O)[C@H](Cc1ccccc1)NC(=O)[C@H](CO)NC(=O)[C@H](Cc1ccccc1)NC(=O)CNC(=O)CN)C(=O)N[C@@H](Cc1ccccc1)C(N)=O (H-GGFSF[X5]F-NH2) ... > 100 µM
CCCNC(=N)NCC[C@H](NC(=O)[C@H](Cc1ccccc1)NC(=O)[C@H](CO)NC(=O)[C@H](Cc1ccccc1)NC(=O)CNC(=O)CN)C(=O)N[C@@H](Cc1ccccc1)C(N)=O (H-GGFSF[X22]F-NH2) ... > 100 µM
N=C(NCCC[C@H](NC(=O)[C@H](Cc1ccccc1)NC(=O)[C@H](CO)NC(=O)[C@H](Cc1ccccc1)NC(=O)CNC(=O)CN)C(=O)N[C@@H](Cc1ccccc1)C(N)=O)N1CCC1 (H-GGFSF[X6]F-NH2) ... > 100 µM

Hi there! I need EC50 for each item below, if you can.
1. CN(C)C(=N)NCCCC[C@H](NC(=O)[C@H](Cc1ccccc1)NC(=O)[C@H](CO)NC(=O)[C@H](Cc1ccccc1)NC(=O)CNC(=O)CN)C(=O)N[C@@H](Cc1ccccc1)C(N)=O (H-GGFSF[X3]F-NH2)
2. CC(C)CNC(=N)NCCCC[C@H](NC(=O)[C@H](Cc1ccccc1)NC(=O)[C@H](CO)NC(=O)[C@H](Cc1ccccc1)NC(=O)CNC(=O)CN)C(=O)N[C@@H](Cc1ccccc1)C(N)=O (H-GGFSF[X11]F-NH2)

output:
["> 100 µM", "2.75 µM"]

====

I'd be grateful if you could share measured EC50 for these entries.
# Study System: Pyroglutamylated RF-amide peptide receptor (Homo sapiens, UniProt Q96P65)
# Assay Text: Agonist activity at human QRFPR expressed in CHO cells co-expressing Galpha16 assessed as increase Ca2+ mobilization after 3 mins by Fluo-4 AM-based scanning fluorometery
Starred links: 1 amine or outer side, 2 acyl side, 3 side chain; linkers in the order of their positions; H or OH if unused. Non-standard residues stand in square brackets, D forms with d. Residues, ends and D or L forms follow the SMILES beside them. X1 = C/N=C(\NCCC[C@H](N[*:1])C(=O)[*:2])N(C)C; X21 = CCN(C)C(=N)NCCC[C@H](N[*:1])C(=O)[*:2]; X23 = CN(C)C(=N)NCC[C@H](N[*:1])C(=O)[*:2]; X10 = CNC(=N)NCCCC[C@H](N[*:1])C(=O)[*:2]; Arg(Me2a) = CN(C)C(=N)NCCC[C@H](N)C(=O)O; Arg(ω-nPr) = CCCNC(=N)NCCC[C@H](N)C(=O)O; Arg(Et) = CCNC(=N)NCCC[C@H](N)C(=O)O; Arg(Me) = CNC(=N)NCCC[C@H](N)C(=O)O; Agb = N=C(N)NCC[C@H](N)C(=O)O

CCCNC(=N)NCCC[C@H](NC(=O)[C@H](Cc1ccccc1)NC(=O)[C@H](CO)NC(=O)[C@H](Cc1ccccc1)NC(=O)CNC(=O)CN)C(=O)N[C@@H](Cc1ccccc1)C(N)=O (H-GGFSF[Arg(ω-nPr)]F-NH2) ... 1.4 µM

Hi there! I need EC50 for each item below, if you can.
1. C/N=C(\NCCC[C@H](NC(=O)[C@H](Cc1ccccc1)NC(=O)[C@H](CO)NC(=O)[C@H](Cc1ccccc1)NC(=O)CNC(=O)CN)C(=O)N[C@@H](Cc1ccccc1)C(N)=O)N(C)C (H-GGFSF[X1]F-NH2)
2. N=C(N)NCC[C@H](NC(=O)[C@H](Cc1ccccc1)NC(=O)[C@H](CO)NC(=O)[C@H](Cc1ccccc1)NC(=O)CNC(=O)CN)C(=O)N[C@@H](Cc1ccccc1)C(N)=O (H-GGFSF[Agb]F-NH2)
3. CCNC(=N)NCCC[C@H](NC(=O)[C@H](Cc1ccccc1)NC(=O)[C@H](CO)NC(=O)[C@H](Cc1ccccc1)NC(=O)CNC(=O)CN)C(=O)N[C@@H](Cc1ccccc1)C(N)=O (H-GGFSF[Arg(Et)]F-NH2)
4. CN(C)C(=N)NCCC[C@H](NC(=O)[C@H](Cc1ccccc1)NC(=O)[C@H](CO)NC(=O)[C@H](Cc1ccccc1)NC(=O)CNC(=O)CN)C(=O)N[C@@H](Cc1ccccc1)C(N)=O (H-GGFSF[Arg(Me2a)]F-NH2)
5. CCN(C)C(=N)NCCC[C@H](NC(=O)[C@H](Cc1ccccc1)NC(=O)[C@H](CO)NC(=O)[C@H](Cc1ccccc1)NC(=O)CNC(=O)CN)C(=O)N[C@@H](Cc1ccccc1)C(N)=O (H-GGFSF[X21]F-NH2)
6. CN(C)C(=N)NCC[C@H](NC(=O)[C@H](Cc1ccccc1)NC(=O)[C@H](CO)NC(=O)[C@H](Cc1ccccc1)NC(=O)CNC(=O)CN)C(=O)N[C@@H](Cc1ccccc1)C(N)=O (H-GGFSF[X23]F-NH2)
7. CNC(=N)NCCCC[C@H](NC(=O)[C@H](Cc1ccccc1)NC(=O)[C@H](CO)NC(=O)[C@H](Cc1ccccc1)NC(=O)CNC(=O)CN)C(=O)N[C@@H](Cc1ccccc1)C(N)=O (H-GGFSF[X10]F-NH2)
8. CNC(=N)NCCC[C@H](NC(=O)[C@H](Cc1ccccc1)NC(=O)[C@H](CO)NC(=O)[C@H](Cc1ccccc1)NC(=O)CNC(=O)CN)C(=O)N[C@@H](Cc1ccccc1)C(N)=O (H-GGFSF[Arg(Me)]F-NH2)

output:
1. > 100 µM
2. > 100 µM
3. 1.37 µM
4. > 100 µM
5. > 100 µM
6. > 100 µM
7. > 100 µM
8. 0.0664 µM

====

# Study System: Pyroglutamylated RF-amide peptide receptor (Homo sapiens)
# Sequence (Q96P65 whole entry): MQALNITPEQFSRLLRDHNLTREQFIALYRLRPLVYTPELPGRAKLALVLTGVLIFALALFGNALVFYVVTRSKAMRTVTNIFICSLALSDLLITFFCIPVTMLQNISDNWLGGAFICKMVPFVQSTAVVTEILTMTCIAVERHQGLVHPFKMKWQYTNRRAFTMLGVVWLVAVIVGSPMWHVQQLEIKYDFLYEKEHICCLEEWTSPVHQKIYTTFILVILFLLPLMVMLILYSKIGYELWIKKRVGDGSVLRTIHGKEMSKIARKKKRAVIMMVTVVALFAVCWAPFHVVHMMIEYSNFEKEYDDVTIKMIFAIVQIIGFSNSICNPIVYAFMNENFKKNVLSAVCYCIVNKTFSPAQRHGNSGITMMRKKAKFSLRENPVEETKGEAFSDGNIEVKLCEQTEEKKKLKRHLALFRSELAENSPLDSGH
# Assay Text: Antagonist activity at human QRFPR expressed in CHO cells co-expressing Galpha16 assessed as inhibition of 26RFa-induced Ca2+ mobilization preincubated for 15 mins followed by agonist addition measured after 3 mins by Fluo-4 AM-based scanning fluorometery
pIC50: −log10 of the molar value. Starred links: 1 amine or outer side, 2 acyl side, 3 side chain; linkers in the order of their positions; H or OH if unused. Non-standard residues stand in square brackets, D forms with d. Residues, ends and D or L forms follow the SMILES beside them. X18 = C/N=C(/NCC[C@H](N[*:1])C(=O)[*:2])N(C)C; X23 = CN(C)C(=N)NCC[C@H](N[*:1])C(=O)[*:2]; Arg(Me2a) = CN(C)C(=N)NCCC[C@H](N)C(=O)O
Measured Quantity: pIC50

Before answering, review these 2 worked examples.
C/N=C(/NCC[C@H](NC(=O)[C@H](Cc1ccccc1)NC(=O)[C@H](CO)NC(=O)[C@H](Cc1ccccc1)NC(=O)CNC(=O)CN)C(=O)N[C@@H](Cc1ccccc1)C(N)=O)N(C)C (H-GGFSF[X18]F-NH2) ... < 4.00
CN(C)C(=N)NCC[C@H](NC(=O)[C@H](Cc1ccccc1)NC(=O)[C@H](CO)NC(=O)[C@H](Cc1ccccc1)NC(=O)CNC(=O)CN)C(=O)N[C@@H](Cc1ccccc1)C(N)=O (H-GGFSF[X23]F-NH2) ... < 4.00

Now turn to the next molecule.
input: Entry CN(C)C(=N)NCCC[C@H](NC(=O)[C@H](Cc1ccccc1)NC(=O)[C@H](CO)NC(=O)[C@H](Cc1ccccc1)NC(=O)CNC(=O)CN)C(=O)N[C@@H](Cc1ccccc1)C(N)=O (H-GGFSF[Arg(Me2a)]F-NH2) : reported pIC50 = ?
output: 5.22
